Entry source: the supplement of paper PMC10126150

System: ATP;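 also: ATP exposure 15 min at 22 °C before imaging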
Test: switch fluorescence ratio, 500 uM ATP over buffer (Cy3 cluster intensity, sum of 5 cycles each) (fold (ratio)); higher = stronger signal-on switching upon ATP binding; sequences stand for … in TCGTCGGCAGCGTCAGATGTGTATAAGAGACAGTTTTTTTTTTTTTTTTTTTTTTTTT…TC
Conditions: aptamer strand: ATP DNA aptamer (quencher-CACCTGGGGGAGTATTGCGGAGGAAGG + anchor), 100 nM annealed; ATP concentration: 500 uM
# key: entry, value: switch fluorescence ratio
Write no unit; give the number alone.

Answered examples (5):
AATAATCTTT : 1.02
CACAGGTGCG : 2.23
TTTGCTTAGA : 1.04
TGGGGACCCT : 0.991
GGGCTAAAGA : 1.01

Which switch fluorescence ratio is listed for TGATAATGGG ? 0.982

Which switch fluorescence ratio is listed for GTAGGGGGTC ? 1.01

Which switch fluorescence ratio is listed for TTTGAGATTG ? 0.996

Which switch fluorescence ratio is listed for GCTAATATGG ? 0.998
